The measurements presented in this section are drawn from PubChem BioAssay AID1159524.

test: High Throughput Screening for Foot and Mouth Disease Virus Antivirals; settings: FMDV antiviral cell-based qHTS; series mostly up to 57.9 µM; note: read-out not given here; nearly all actives have a fitted effect of over 45% in size
Hit rate of the full screen: of about 410,000 compounds, about 5,100 (1.2%) were called active. Another 8% or so got no clear call; they are omitted. Calls come from the whole dose curve; tested in HEK293T cells. The full list was thinned out, with actives kept by preference.
Outcome codes: y for active, n for inactive

Compound	Label class
CCc1ccccc1N1C(=O)CN(S(=O)(=O)CC)CC1(C)C(=O)NC1CCCCC1 (configuration not stated)	n
Cc1ccc(C(NC(=O)C2CCN(CCOc3ccc(Cl)cc3Cl)CC2)c2ccccn2)cc1 (configuration not stated)	n
Cc1noc(C)c1-c1cc(NCc2cccnc2)ncn1	n
CCS(=O)(=O)N1CCN(C(=O)c2cccs2)CC1	n
COc1ccc(CS(=O)/C(Cl)=C(/Cl)C(=O)Nc2ccc(OC)nc2)cc1 (configuration not stated)	y
CC(=O)OCC(=O)[C@@]1(O)CCC2C3CCC4=CC(=O)CC[C@@]4(C)[C@]3(F)C(O)C[C@]21C (some centres not stated)	n
COc1ccc(C2Sc3ccccc3NC3=C2C(=O)c2ccccc23)c(OC)c1OC (configuration not stated)	n
CCCc1nc(SCC(=O)N2CCCC2)c2c(=O)n(C)c(=O)n(C)c2n1	n
O=P(O)(O)C(O)c1ccc2ccccc2c1 (configuration not stated)	n
COc1ccc(CN2C(=O)C(NC(=O)c3cccc(C)c3)(C(F)(F)F)N=C2c2ccccc2)cc1 (configuration not stated)	n
CCN(CCCNC(=O)CSc1cc(=O)n(C)c2cc(Cl)ccc12)c1cccc(C)c1	n
COc1ccc2c(c1OC)C(=O)OC2Nc1nc(-c2ccccc2)cs1 (configuration not stated)	y
COc1cccc(-c2nc3ccc(N4CCN(C)CC4)cc3[nH]2)c1	y
CCN1/C(=C\c2ccc3ccccc3[n+]2CC)Sc2cc(C)ccc21	y
Cc1cccnc1C(NC(=O)C1CCN(Cc2ccc(Cl)c(Cl)c2)CC1)c1ccc(Cl)cc1 (configuration not stated)	n
O=C1CCN(Cc2ccc(-c3ccccc3)cc2)CCN1Cc1ccccn1	n
CS(=O)(=O)N1CCC2(CCN(c3ccncc3)CC2)CC1	n
COc1cccc(Cn2c(=O)c(C)nc3cnc(Oc4ccccc4)nc32)c1	n
Cc1ccc(N2CCN(C(=O)c3cccs3)CC2)c(C)c1	n
COc1cccc(N2CCN(C3CC(=O)N(c4ccc(Cl)cc4)C3=O)CC2)c1 (configuration not stated)	n
Cc1ccccc1C(CC(=O)c1cccs1)C(C#N)C#N (configuration not stated)	y
Cc1ccc(SCC(=O)Nc2ccc3oc(-c4ccccc4F)nc3c2)cc1	n
